Tested on: DCAMKL3
Construct: gene DCLK3
Settings: concentration: 1 μM, replicates: in singlicate; n = 1;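 further: KINOMEscan kinase panel screen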
ASSAY_METRIC: %Inh (%)
Numbers only here, please. The scale is %.

See these solved cases before continuing.
MOLECULE	DISPLAY_UNIT	%Inh
COc1ccc(Nc2nccc(N3CCC(NC(=O)C(C)c4ccc(Cl)cc4)CC3)n2)cc1 (stereo not drawn)	%	0
O=C1NC(=O)C(c2ccc(Cl)cc2)=C1Nc1cccc(Cl)c1	%	17
Nc1ncnc2occ(-c3ccc4c(c3)CCN4C(=O)Cc3cc(F)ccc3F)c12	%	0
COc1ccc(Nc2nccc(N3CCC(NC(=O)C(C)c4ccc(Cl)cc4)C3)n2)cc1 (stereo not drawn)	%	29

Item: COc1ccc(CSc2nnc(-c3ccc4c(c3)CCO4)o2)cc1 | %Inh: 0

Item: CNc1nc(-c2ccc3c(N)n[nH]c3c2)cc(N2C[C@@H](C(=O)NC3CCCCC3)OC[C@H]2C)n1 | %Inh: 31

Item: COc1cccc(CNC(=O)NC2CCN(c3ccnc(Nc4ccc(F)cc4)n3)C2)c1 (stereo not drawn) | %Inh: 0

Item: CNc1nc(-c2ccc3c(N)n[nH]c3c2)cc(N2C[C@@H](C(=O)Nc3ccccc3)CC[C@H]2C)n1 | %Inh: 76

Item: CC(C)c1cc(-c2ccc3c(N)n[nH]c3c2)nc(N)n1 | %Inh: 0

Item: CS(=O)(=O)CCNCc1nc(-c2ccc3ncnc(Nc4ccc5c(cnn5Cc5ccccc5)c4)c3c2)cs1.Cl.Cl | %Inh: 4

Item: CS(=O)(=O)CCNCc1nc(-c2ccc3ncnc(Nc4ccc(OCc5ccccc5)c(Cl)c4)c3c2)cs1.Cl | %Inh: 6

Item: COc1ccc(CSc2nnc(-c3ccc4nccn4c3)o2)cc1C(F)(F)F | %Inh: 0

Item: COc1nccc(-c2c(-c3ccc(F)cc3)ncn2CCCN2CCOCC2)n1 | %Inh: 11

Item: Cn1cncc1-c1cc2c(Nc3ccc(OCc4ccccc4)cc3)ncnc2cn1 | %Inh: 0

Item: O=C(Nc1n[nH]c2nc(-c3cccs3)c(Br)cc12)C1CC1 | %Inh: 0

###

Test system: MST2
Construct: gene STK3
Conditions: concentration: 1 μM, replicates: in singlicate; n = 1
ASSAY_METRIC: %Inh (%)
Numbers only here, please. The scale is %.

See these solved cases before continuing.
MOLECULE	ASSAY_RESULT
Cn1cncc1-c1cc2c(Nc3ccc(OCc4ccccc4)cc3)ncnc2cn1 [GW281179]	0
CC(C)c1cc(-c2ccc3c(N)n[nH]c3c2)nc(N)n1 [GSK2250882]	0
CCCCc1nn2ncccc2c1-c1ccnc(NC2CC2)n1 [GW684374]	15
O=C(Nc1n[nH]c2nc(-c3cccs3)c(Br)cc12)C1CCCC1 [SB-743341]	51

Item: Cc1ccc(NC(=O)Nc2ccccc2)cc1-c1ccc(C(=O)Nc2ccncc2)cc1 [GSK1398471] | %Inh: 0

###

Test system: CSNK2A1
Settings: concentration: 1 μM, replicates: in singlicate; n = 1
%Inh vs 1%: at or above is MET, below is NOT MET.

Solved entries:
COMPOUND	GROUP
Cc1ccc(NC(=O)Nc2ccc(Cl)c(C(F)(F)F)c2)cc1-c1ccc(C(=O)Nc2ccncc2)cc1	MET
CSc1ccc(-c2nc3n(c2-c2ccncc2)CCC3)cc1	MET
COc1ccc(Nc2nccc(N3CCC(NC(=O)C(C)c4ccc(Cl)cc4)CC3)n2)cc1 (stereo not shown)	NOT MET
Cc1ccc(NC(=O)Nc2ccccc2)cc1-c1ccc(C(=O)Nc2ccncc2)cc1	MET

Please check the record COc1ccc(Nc2nccc(-c3ccc(NC(=O)c4cc5cc(F)ccc5[nH]4)cc3)n2)cc1 and state if its %Inh is at or above 1%.
NOT MET

Please check the record COc1ccc(-c2coc3ccc(-c4nnc(C)o4)cc23)cc1 and state if its %Inh is at or above 1%.
NOT MET

Please check the record CCCCc1nn2ncccc2c1-c1ccnc(NC2CC2)n1 and state if its %Inh is at or above 1%.
NOT MET

Please check the record CNc1cc(-c2ccc3c(N)n[nH]c3c2)nc(N)n1 and state if its %Inh is at or above 1%.
MET

Please check the record Cc1ccccc1-c1cc(-c2c[nH]nc2-c2ccccn2)ccn1 and state if its %Inh is at or above 1%.
MET
